- TEST TARGET: epithelial sodium channel (ENaC) (Homo sapiens, UniProt P37088+P51168+P51170)
- Construct: host or cells: primary Human Bronchial Epithelial cells (HBECs), air-liquid interface culture
- Sequence (P37088 whole entry): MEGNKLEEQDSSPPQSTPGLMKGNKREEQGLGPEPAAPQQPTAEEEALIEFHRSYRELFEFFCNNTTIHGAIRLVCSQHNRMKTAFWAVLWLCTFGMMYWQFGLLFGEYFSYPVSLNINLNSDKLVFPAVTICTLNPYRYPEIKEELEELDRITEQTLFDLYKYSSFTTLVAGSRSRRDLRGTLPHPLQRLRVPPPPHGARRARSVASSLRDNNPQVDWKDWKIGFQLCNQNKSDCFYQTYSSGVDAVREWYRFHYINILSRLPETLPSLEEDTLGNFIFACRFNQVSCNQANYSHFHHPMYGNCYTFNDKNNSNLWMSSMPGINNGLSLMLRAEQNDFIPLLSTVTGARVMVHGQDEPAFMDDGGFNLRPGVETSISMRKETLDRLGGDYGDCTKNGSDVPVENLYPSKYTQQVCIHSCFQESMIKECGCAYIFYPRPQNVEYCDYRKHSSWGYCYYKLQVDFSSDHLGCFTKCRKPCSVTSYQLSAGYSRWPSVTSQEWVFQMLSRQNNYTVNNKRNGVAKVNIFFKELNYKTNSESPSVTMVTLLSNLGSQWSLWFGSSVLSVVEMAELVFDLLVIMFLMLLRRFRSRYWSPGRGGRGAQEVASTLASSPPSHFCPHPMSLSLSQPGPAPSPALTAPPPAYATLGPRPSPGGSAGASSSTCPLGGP
- Sequence (P51168 whole entry): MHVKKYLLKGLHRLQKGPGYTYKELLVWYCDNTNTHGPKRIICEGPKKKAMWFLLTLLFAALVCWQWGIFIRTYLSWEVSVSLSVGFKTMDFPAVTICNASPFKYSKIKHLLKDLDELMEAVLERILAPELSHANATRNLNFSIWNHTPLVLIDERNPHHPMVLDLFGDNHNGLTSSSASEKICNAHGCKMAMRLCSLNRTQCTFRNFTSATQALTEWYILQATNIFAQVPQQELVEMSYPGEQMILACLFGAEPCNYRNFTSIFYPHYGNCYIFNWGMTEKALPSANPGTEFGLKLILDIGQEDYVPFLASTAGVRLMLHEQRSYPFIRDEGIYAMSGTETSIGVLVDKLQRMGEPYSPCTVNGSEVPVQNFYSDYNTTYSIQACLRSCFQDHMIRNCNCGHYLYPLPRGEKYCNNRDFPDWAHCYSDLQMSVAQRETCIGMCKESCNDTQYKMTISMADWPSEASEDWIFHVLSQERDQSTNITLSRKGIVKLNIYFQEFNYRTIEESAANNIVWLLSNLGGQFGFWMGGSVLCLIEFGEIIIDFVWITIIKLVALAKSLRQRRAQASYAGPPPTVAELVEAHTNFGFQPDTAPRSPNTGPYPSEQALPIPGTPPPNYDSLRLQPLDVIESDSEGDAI
- Sequence (P51170 whole entry): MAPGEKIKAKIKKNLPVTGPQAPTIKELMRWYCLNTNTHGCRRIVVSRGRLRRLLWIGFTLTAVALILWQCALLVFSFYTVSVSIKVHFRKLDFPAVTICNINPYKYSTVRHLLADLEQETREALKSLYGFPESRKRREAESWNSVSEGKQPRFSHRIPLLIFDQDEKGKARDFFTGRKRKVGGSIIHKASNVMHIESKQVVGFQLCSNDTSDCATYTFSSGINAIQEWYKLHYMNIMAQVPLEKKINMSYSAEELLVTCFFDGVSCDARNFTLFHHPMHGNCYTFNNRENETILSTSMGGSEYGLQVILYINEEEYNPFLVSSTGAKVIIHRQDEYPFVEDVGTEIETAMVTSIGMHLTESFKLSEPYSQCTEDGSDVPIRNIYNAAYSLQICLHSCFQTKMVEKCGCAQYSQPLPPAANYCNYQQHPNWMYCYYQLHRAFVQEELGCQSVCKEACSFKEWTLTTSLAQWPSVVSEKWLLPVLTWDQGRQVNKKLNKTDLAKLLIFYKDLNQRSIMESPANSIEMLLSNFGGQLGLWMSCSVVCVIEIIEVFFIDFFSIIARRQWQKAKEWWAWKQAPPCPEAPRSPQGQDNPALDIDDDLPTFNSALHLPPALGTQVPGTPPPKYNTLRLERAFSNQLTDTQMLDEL
- ASSAY PROTOCOL: Short circuit current (ISC) measurements in Human Bronchial Epithelial cells, inhibition of amiloride-sensitive ISC
- Type: cell-based
- STUDY CONDITIONS: inhibition of the amiloride-sensitive ISC; Human Bronchial Epithelial cells (HBECs) at air-liquid interface; compound added to apical chamber; read-out: IC50
QUANTITY KIND: pIC50
Give only the number. pIC50 is defined as minus log10 of concentration in molar units.

Nc1nc(N)c(C(=O)/N=C2\NCC3(CCN(C(=O)NCCc4cccc(OCc5ccccc5)c4)CC3)N2)nc1Cl ... 8.07
Nc1nc(N)c(C(=O)/N=C2\NCC3(CCN(C(=O)NCc4ccccc4)CC3)N2)nc1Cl ... 7.44
CC(C)(C)OC(=O)COc1ccc(CCC(=O)N2CCC3(CC2)CN/C(=N\C(=O)c2nc(Cl)c(N)nc2N)N3)cc1 ... 7.38
Cn1ccc2cc(S(=O)(=O)N3CCC4(CC3)CN/C(=N\C(=O)c3nc(Cl)c(N)nc3N)N4)ccc21 ... 6.44

According to the records, this molecule Nc1nc(N)c(C(=O)/N=C2/NC[C@@H](CCCc3ccc(OCC(=O)N4CCOCC4)cc3)N2)nc1Cl displays pIC50 of 7.47

According to the records, this molecule Nc1nc(N)c(C(=O)/N=C2/NC[C@@H](CCCc3ccc(OC[C@@H](O)CO)cc3)N2)nc1Cl displays pIC50 of 7.74

According to the records, this molecule Nc1nc(N)c(C(=O)/N=C2\NCC3(CCN(C(=O)c4cccc5[nH]ccc45)CC3)N2)nc1Cl displays pIC50 of 7.72
